This collection of values is drawn from patent US10919941B2.

Tested on: Miltenberger Antibody Positive Panel
Experimental Details: Reactivity of modified RBCs against the Miltenberger Antibody Positive Panel
Type: cell-based, human
Parameters: key: 0 or ‘−’ no agglutination; 0 or ‘−’ no agglutination; 1+ or 3=very weak agglutination; 1+ or 3=very weak agglutination; 2+ or 5=weak agglutination; 2+ or 5=weak agglutination; 3+ or 8=moderate strong agglutination; 3+ or 8=moderate strong agglutination; 4+ or 10/12=strong agglutination; 4+ or 10/12=strong agglutination; 4+ or 10/12=strong agglutination
Applied Conditions: Table 9; construct 100 μg/ml
No end group written: not given here.
# maps each entry to its score vs panel 11 Mur
# print the numeric value only

Please review the entries below; each comes with its answer.
M16: DOPE peptide-lipid construct: Mur peptide TYPAHTANEV, leader c, spacer PEG (TYPAHTANEVC; also: DOPE peptide-lipid construct via leader Cys, spacer PEG) : 0
M14: DOPE peptide-lipid construct: Mur peptide DTYPAHTANEVSE, leader c, spacer CMG(2) (DTYPAHTANEVSEC; also: DOPE peptide-lipid construct via leader Cys, spacer CMG(2)) : 0

Then there is this substance:
// score vs panel 11 Mur (Miltenberger Antibody Positive Panel) for M19: DOPE peptide-lipid construct: Mur peptide PAHTANEV, leader c, spacer CMG(2) (PAHTANEVC; also: DOPE peptide-lipid construct via leader Cys, spacer CMG(2)) = 0
